System: MDA-MB-468 breast
Procedure Text: NCI-60 one-dose screen, 48 h (100 = growth as untreated, 0 = no growth, -100 = all killed)
Test Conditions: 10 µM unless noted
About 83,000 compounds went through this panel and 20% of them were active in at least one assay; those are over-represented in the sample as a whole.
Threshold 30%: growth strictly smaller gives y, otherwise n.

[
  {
    "Structure As Smiles": "CC[C@H](C)[C@H](NC(=O)CN(C)C)C(=O)N(C)[C@H](C[C@@H](OC(C)=O)c1nc(C(=O)NC23CC(C(=O)OC)(C2)C3)cs1)C(C)C",
    "Discrete Label": "y"
  },
  {
    "Structure As Smiles": "CC1(C)N=C(N)N=C(N)N1c1ccc(CCC(=O)Nc2ccc(S(=O)(=O)F)cc2)cc1",
    "Discrete Label": "n"
  },
  {
    "Structure As Smiles": "CCn1c2ccccc2c2cc(C(=O)c3ccc(C)c4ccccc34)ccc21",
    "Discrete Label": "y"
  },
  {
    "Structure As Smiles": "NC(=O)NC(=O)CI",
    "Discrete Label": "n"
  },
  {
    "Structure As Smiles": "COc1ccc(C(O)(C(=O)O)c2ccc(OC)cc2)cc1",
    "Discrete Label": "n"
  }
]

* * *

Test system: KM12 colon
Procedure Text: NCI-60 one-dose screen, 48 h (100 = growth as untreated, 0 = no growth, -100 = all killed)
Test Conditions: 10 µM
The panel holds about 83,000 compounds, 20% with a hit somewhere; the sample as a whole holds those more often.
Threshold check on growth: strictly below -30% is 1.0; on or above -30% is 0.0.

[
  {
    "Structure As Smiles": "COC(=O)C[C@](O)(CCC(C)C)C(=O)O[C@@H]1C(OC)=C[C@]23CCCN2CCc2cc4c(cc2[C@H]13)OCO4",
    "Discrete Label": 0.0
  },
  {
    "Structure As Smiles": "CC(C)C[C@H](NC(=O)CNC(=O)C[C@H]1O[C@@H]2OC3(C)CC[C@H]4[C@H](C)CC[C@@H]([C@H]1C)[C@@]24OO3)B(O)O",
    "Discrete Label": 0.0
  },
  {
    "Structure As Smiles": "COc1cc2cc(C(=O)N3C[C@@H](CCl)c4c3cc(OC(=O)N3CCN(C)[C@@H]5CSSC[C@H]53)c3ccccc43)[nH]c2c(OC)c1OC",
    "Discrete Label": 0.0
  },
  {
    "Structure As Smiles": "COc1cc2cc(C(=O)N3C[C@@H](CCl)c4c3cc(OC(=O)N3CCN(C(=O)CCC(=O)N5CCN(C)CC5)[C@@H]5CSSC[C@@H]53)c3ccccc43)[nH]c2c(OC)c1OC",
    "Discrete Label": 1.0
  },
  {
    "Structure As Smiles": "O=C(/C=C/c1ccc(Cl)cc1)c1nc2ccccc2n1Cc1ccc(Br)cc1",
    "Discrete Label": 0.0
  },
  {
    "Structure As Smiles": "O=C(/C=C/c1ccccc1)c1nc2ccccc2n1Cc1ccc(F)cc1",
    "Discrete Label": 1.0
  }
]

* * *

System: MDA-MB-468 breast
Procedure Text: NCI-60 one-dose screen, 48 h
Test Conditions: 10 µM unless noted
Compounds without any hit were thinned out: in the full panel of roughly 83,000, 20% have a hit. Active and inactive are the calls of the source. Rule for the calls: active = growth percent below 10; inactive = the rest.
Classes used: active, inactive

[
  {
    "Compound": "CN1CC(=O)N(O)C1(C)c1cccnc1 (configuration not stated)",
    "Discrete Label": "inactive"
  },
  {
    "Compound": "Clc1ccc(COC(Cn2ccnc2)c2ccc(Cl)cc2Cl)c(Cl)c1 (configuration not stated)",
    "Discrete Label": "inactive"
  },
  {
    "Compound": "O=C(CC1(O)C(=O)N(Cc2ccccc2)c2ccccc21)c1ccc(C(=O)NCC2CCC3(CC2)OOC2(CCCCC2)OO3)cc1 (configuration not stated)",
    "Discrete Label": "active"
  },
  {
    "Compound": "COc1cc(C2CC(=O)Nc3nc(N)[se]c32)cc(OC)c1OC (configuration not stated)",
    "Discrete Label": "inactive"
  },
  {
    "Compound": "C=CCOC(=O)C(Br)CC (configuration not stated)",
    "Discrete Label": "inactive"
  },
  {
    "Compound": "COc1cc(CNCCc2ccc(Cl)cc2)cc(OC)c1O",
    "Discrete Label": "inactive"
  },
  {
    "Compound": "COc1ccc(CN)cc1OC",
    "Discrete Label": "inactive"
  },
  {
    "Compound": "C[C@@H]1CCC/C=C/[C@H]2C[C@@H](O)C[C@@H]2[C@@H](O)/C=C/C(=O)O1",
    "Discrete Label": "active"
  },
  {
    "Compound": "O=S(=O)(c1ccc(Cl)cc1)C(Cl)(Cl)Cl",
    "Discrete Label": "active"
  },
  {
    "Compound": "C[N+]12CN3CN(CN(C3)C1)C2",
    "Discrete Label": "inactive"
  },
  {
    "Compound": "O=C(CCl)c1ccc([N+](=O)[O-])o1",
    "Discrete Label": "active"
  },
  {
    "Compound": "C=CCc1cc2c(cc1OCC)OCO2",
    "Discrete Label": "inactive"
  }
]
